experiment: viability of HCT116 lacking mutant beta-catenin – cell-based, human colon tumor, dose response (AID 1045); type: functional;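 further: HCT116 colon tumor cells with beta catenin knocked out; cells exposed to compound for 60 hours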
Activity calls are given as the source filed them. How the calls were made is not given here.
EC50 values for the compounds below.

Some solved cases for reference:
CCc1nn2cc(C(=O)c3cc(Cl)ccc3O)cnc2c1-c1ccc(F)cc1; 28.3 µM (active)
O=C(N/N=C\c1ccc([N+](=O)[O-])s1)c1cncc(Br)c1; 0.452 µM (active)
Cc1cccc2sc(NNC(=O)C3COc4ccccc4O3)nc12 (stereo not given); 36.7 µM (active)
CCN1/C(=C/c2ccc3ccccc3[n+]2CC)C=Cc2ccccc21; 0.167 µM (active)

Note: attention shifts to another entry.
Query: EC50; subject: Cc1ccc(NC(=O)/C(=C\c2cccc([N+](=O)[O-])c2)NC(=O)c2cccs2)cc1
24.1 µM (active)
